target: BTK (Homo sapiens (Human), UniProt Q06187); assay: In vitro BTK kinase assay: BTK-POLYGAT-LS ASSAY
Sequence (Q06187 whole entry): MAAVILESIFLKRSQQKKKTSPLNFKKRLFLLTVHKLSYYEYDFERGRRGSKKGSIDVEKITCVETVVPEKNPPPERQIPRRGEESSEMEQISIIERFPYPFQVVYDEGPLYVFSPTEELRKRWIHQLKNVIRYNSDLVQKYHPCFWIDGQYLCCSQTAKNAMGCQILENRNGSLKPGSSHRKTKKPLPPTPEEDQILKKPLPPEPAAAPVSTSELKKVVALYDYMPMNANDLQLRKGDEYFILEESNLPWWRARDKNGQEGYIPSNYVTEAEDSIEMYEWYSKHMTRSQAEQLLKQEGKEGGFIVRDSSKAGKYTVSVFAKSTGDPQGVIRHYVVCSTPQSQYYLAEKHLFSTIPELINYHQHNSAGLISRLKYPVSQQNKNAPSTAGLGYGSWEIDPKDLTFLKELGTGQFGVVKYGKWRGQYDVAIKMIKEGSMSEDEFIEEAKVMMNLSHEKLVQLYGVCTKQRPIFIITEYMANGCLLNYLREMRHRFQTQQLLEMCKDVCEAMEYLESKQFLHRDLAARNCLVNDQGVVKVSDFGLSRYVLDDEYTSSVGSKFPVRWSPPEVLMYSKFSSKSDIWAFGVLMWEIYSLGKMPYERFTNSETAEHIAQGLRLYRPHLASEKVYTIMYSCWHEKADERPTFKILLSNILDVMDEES
measured-property: IC50

[[record]]
molecule = "N[C@@H]1CCN(c2ccccc2NC(=O)Nc2cccc(C3CCCN(c4ncnc5[nH]ccc45)C3)c2)C1 (stereo partly shown) [compound 164]"
recorded_result = "100 to 999 nM"

[[record]]
molecule = "O=C(Nc1cccc(C2CCCN(c3ncnc4[nH]ccc34)C2)c1)[C@@H](O)c1ccccc1 (stereo partly shown) [Cmpd 18]"
recorded_result = "1000 to 10000 nM"

[[record]]
molecule = "Nc1ncnc(N2C[C@@H](O)C[C@@H](N3CCCC(Nc4cc(F)cc(Cl)c4)C3=O)C2)c1F (stereo partly shown) [compound 284]"
recorded_result = "100 to 999 nM"

[[record]]
molecule = "O=C(Nc1cccc(C2CCCN(c3ncnc4[nH]ccc34)C2)c1)Nc1ccccc1N1CC[C@@H](F)C1 (stereo partly shown) [compound 162]"
recorded_result = "100 to 999 nM"

